assay.notes: Leishmania major promastigote growth inhibition, primary screen (AID 1063);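 further: promastigotes grown with compound for 44 hours at 28 °C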
condition.info: Leishmania major promastigotes, resazurin fluorescence viability; at 10 µM; hits give high values
About 18,000 (9%) of roughly 200,000 compounds were called active. Shown is part of a subset that was picked to be rich in actives.
Items are presented alongside their recorded inhibition.
Write the value in % as a bare number.

A selection of reference data follows.
| compound | inhibition / % |
| --- | --- |
| CC(=O)N1N=C(c2ccccc2)OC1c1cccnc1 (stereo unspecified) | -2.61 |
| Cn1cnnc1SCc1nnc(-c2ccccc2Br)o1 | -7.2 |
| O=C(Nc1ccc(F)cc1)N1CCCC(c2nc3c(nnn3Cc3ccccc3Cl)c(=O)[nH]2)C1 (stereo unspecified) | -7.44 |
| O=S(=O)(Nc1cc(S(=O)(=O)N2CCOCC2)ccc1N1CCCC1)c1cccs1 | -3.24 |
| CC1CCCCC1NC(=O)CN1CCC(O)(c2ccc3c(c2)OCO3)CC1 (stereo unspecified) | 30.1 |

IN: Give its inhibition value. Item: COc1cccc(C(=O)Nc2cccnc2)c1OC
OUT: -4.33
